Tested on: HDM-specific T cells expanded from PBMCs of HDM-allergic individuals
ASSAY_TEXT: T cell reactivity of peptides: IFN/IL-5 ELISPOT on in vitro expanded HDM-specific T cells
Assay type: cell-based, human
EXPERIMENTAL_CONTEXT: individual peptides 10 μg/mL
EXPERIMENTAL_ENDPOINT: SFC/donor (SFC/donor)
Reply numerically in SFC/donor, unit not repeated.

Past entries and their recorded results:
SUBSTANCE	SFC/donor / SFC/donor
149 (SSSQYQMAWAFGNNV; Immunogenic fragment) [compound 149]	12
113 (LCIRWYQLGAFYSFA; Immunogenic fragment) [compound 113]	40

Inquiry: Give its SFC/donor value. Item: 110 (ILSDWSSMRWTIPSI; Immunogenic fragment) [compound 110]
Reply text: 36

Inquiry: Please answer likewise for 144 (RYHKMHLFGEMTMNI; Immunogenic fragment) [compound 144]
Reply text: 10

Inquiry: Do the same for 46 (FNYLPVDVQEELRNT; Immunogenic fragment) [compound 46] please
Reply text: 7
